// data source = ChEMBL document CHEMBL3627604

- Species on record: Rattus norvegicus
- Method: Selectivity ratio of Ki for alpha7 nAChR in Sprague-Dawley rat hippocampal membranes to Ki for alpha4beta2 nAChR in Sprague-Dawley rat cortical membranes
Lab note: compare Ratio Ki against 200000. Equal or greater, write yes (1). Smaller, write no (0).

Is it the case that c1ccc(-c2cncc(N3CC4CC(C3)N4)c2)cc1 has Ratio Ki reaching or exceeding 200000?
yes (1)

Item Clc1ccc(Cl)c(-c2cncc(N3CC4CC(C3)N4)c2)c1 with Ratio Ki of 200000 or above?
no (0)

Record Cc1ccc(-c2cncc(N3CC4CC(C3)N4)c2)cc1 ; criterion: Ratio Ki no lower than 200000. Met?
yes (1)

Is Ratio Ki at least 200000? Consider COc1ccc(-c2cncc(N3CC4CC(C3)N4)c2)cc1
yes (1)

Is it the case that Clc1cncc(N2CC3CC(C2)N3)c1 has Ratio Ki reaching or exceeding 200000?
no (0)

// inclusive: Ratio Ki at least 200000? input: Brc1ccc(-c2cncc(N3CC4CC(C3)N4)c2)cc1
yes (1)

Does Fc1ccc(-c2cncc(N3CC4CC(C3)N4)c2)cc1 have a reported Ratio Ki of at least 200000?
yes (1)

Form field: Ratio Ki at least 200000? Entry: O=[N+]([O-])c1ccc(-c2cncc(N3CC4CC(C3)N4)c2)cc1
yes (1)

Decide: is the reported value of Ratio Ki for Brc1cncc(N2CC3CC(C2)N3)c1 equal to or greater than 200000?
no (0)

# bool: Ratio Ki of Clc1ccc(-c2cncc(N3CC4CC(C3)N4)c2)cc1 >= 200000
yes (1)

For this compound, is measured Ratio Ki 200000 or higher? Clc1ccc(-c2cncc(N3CC4CC(C3)N4)c2)cc1Cl
yes (1)
